All values here come from PubChem BioAssay (NCI).

system: SR leukemia; test: NCI tumour cell line growth inhibition, 48 h
So I've got a bunch of compounds here, and I need their GI50 values.

What value of GI50 has been reported for the following compound? `COc1ccc(NC(=O)COc2ccccc2)c(C(N)=O)c1`
466 nM

Field request: GI50 | item: `OCCNC(=S)Nc1ccc(-c2nc(N3C[C@H]4CC[C@@H](C3)O4)c3cccn3n2)cc1`
82 nM

What does the data say about its GI50? Entry: `Cc1ccc(C(=O)Nc2ccc(CN3CCN(C)CC3)c(C(F)(F)F)c2)cc1C#Cc1cnc(N)c2ccc(C#N)cc12`
135 nM

Quick one: GI50 of `O=c1ncc(I)c[nH]1` ?
> 100000 nM

Reported GI50, compound `CC/C=C\C[C@H](O)C/C=C1/C(=O)C=C[C@@H]1C/C=C\CCCC(=O)OCCS(=O)(=O)c1ccccc1` : ____
2870 nM

Could you tell me which GI50 is on file for `Cc1cc(NCCCNc2ccnc3cc(Cl)ccc23)nc(Nc2ccc(C(=O)N3CCCCC3)cc2)n1` ?
1720 nM

I'd like to know its GI50. The compound in question is `CN(Cc1ccccc1)c1ncnc2ccc(Br)cc12`
16500 nM

Query: GI50; subject: `Cc1cc(C)nc(NS(=O)(=O)c2ccc(Nc3nc4nc(NCc5ccccc5)nc(-c5ccc(O)cc5)c4c(=O)[nH]3)cc2)n1`
17900 nM

Given the entry `CC(C)C[C@H](NC(=O)[C@H](Cc1ccccc1)NC(=O)c1cnccn1)B(O)O` , report its measured GI50.
2.19 nM

Field request: GI50 | item: `C/C(=N\NC(=O)c1cccc(S(=O)(=O)N2CCN(C)CC2)c1)c1cc(Cl)ccc1O`
383 nM

Sample `COc1ccc2nc(-c3ccc(Cl)cc3)cc(-c3nnc(SCC(=O)Nc4ccc(/C(C)=N\O)cc4)o3)c2c1` — what was its GI50?
1720 nM

Bench note: what GI50 did `COc1ccc(/C=C(/C(=O)N2CCN(c3ccc(C)cc3)CC2)c2cc(OC)c(OC)c(OC)c2)cc1N` show?
238 nM

Using the record for `O=C1c2cccc3c([N+](=O)[O-])ccc(c23)C(=O)N1CCCCl` , report its GI50.
334 nM

I have this compound here, COc1ccc(C2CC(c3ccc4ccccc4c3)=NN2/C=C2\SC(=S)N(NC(=O)Cc3ccccc3Nc3c(Cl)cccc3Cl)C2=O)cc1 (stereo not drawn) , and I need its recorded GI50.
309 nM

Quick one: GI50 for `Cc1ccccc1NC(=O)N/C(N)=N/c1nc(C)c(C)s1` ?
43.8 nM

# GI50 lookup, item `COc1ccccc1CN=C1NC(=O)/C(=C/c2ccc3ncccc3c2)S1`
1870 nM

Give its GI50 value. Item: `COc1ccc2c(c1)C(=O)c1c-2n(CCCCl)c(=O)c2cc([N+](=O)[O-])ccc12`
< 12.5 nM

Fill in: GI50 of `C=C(C)[C@@H]1CC[C@]2(C(=O)N3CCN(C)CC3)CC[C@]3(C)[C@H](CC[C@@H]4[C@@]5(C)C/C(=C/c6ccncc6)[C@H](O)C(C)(C)[C@@H]5CC[C@]43C)[C@@H]12` is ___
2720 nM

----------
test system: TK-10 renal; experiment: NCI tumour cell line growth inhibition, 48 h
Test Readout: TGI (µM)
Express it in µM; write the number only.

Entry under review: NC(CCCNc1ccc(O)cc1)C(=O)O (centres undefined) . Reported TGI?
97.7

I have this compound here, `C=C(c1ccc(OC)c(/C=C/C(=O)c2cc(OC)c(OC)c(OC)c2)c1)c1cc(OC)c(OC)c(OC)c1` , and I need its recorded TGI.
7.9

Recorded TGI for `CC/C=C\C[C@H](O)C/C=C1/C(=O)C=C[C@@H]1C/C=C\CCCC(=O)OCCS(=O)(=O)c1ccccc1` , please?
17.3

I would be grateful if you could share the reported TGI for `O=S(=O)(Nc1nc2ccccc2nc1Nc1cccc2ccccc12)c1ccccc1` .
28.9

----------
test system: MDA-N; test: NCI tumour cell line growth inhibition, 48 h
I'd appreciate it if you could supply TGI values for the items below.

For the molecule shown here, `N=C(N)SC(c1ccccc1)c1ccccc1` , give the reported TGI.
26.5 µM

Any idea what TGI was measured for `O=P1(N(CCCl)CCCl)Oc2c(Cl)cc(Cl)c(Cl)c2Cc2c(Cl)c(Cl)cc(Cl)c2O1` ?
> 100 µM

For the molecule `O=C(c1ccc(-c2ccccc2)cc1)N(Cc1cccnc1)C(=S)N(Cc1cccnc1)C(=O)c1ccc(-c2ccccc2)cc1` , what TGI is on record?
> 100 µM

Which TGI reading was recorded for the molecule Nc1ncnc2c1ncn2C1OC(CO)CC1O (centres undefined) ?
> 100 µM

Which value of TGI has been reported for [N-]=[N+]=CC(=O)OC1CCc2ccccc21 (centres undefined) in the records?
> 100 µM

Fill blank: measured TGI of the molecule CCCCCCCCCCCCCCCCOP(=O)(O)OP(=O)(O)OCC1OC(n2cnc3c(N)ncnc32)C(O)C1O (centres undefined) is ____.
> 100 µM

Requested field: TGI. Item: `CCCCCCCCCCCCCCCCSS(C)(=O)=O`
> 100 µM

Requested read-out: TGI. Entry: `O=S1(=O)OCc2ccccc21`
> 100 µM

For `COc1ccc(-c2cc(=O)c3c(OC)c(O)c(OC)cc3o2)cc1` , what is its reported TGI?
> 100 µM

Using the record for `CCOc1cc(/C=N\O)cc(/C=N/O)c1O` , report its TGI.
> 100 µM

Fill in: TGI of `CCOC(=O)c1ccc(OCc2nc3cc(C(F)(F)F)ccc3nc2-c2ccccc2)cc1` is ___
> 100 µM

Please report the recorded TGI for `COc1cc(/C=C2/CCCc3ccccc3C2=O)cc(OC)c1OC` .
> 43.8 µM

Quick check: TGI of CCCCCCCCCCCCCCCCCCNc1ccn(C2OC(COP(=O)(O)OCC(COP(=O)(O)OCC3OC(n4cc(C)c(=O)[nH]c4=O)CC3N=[N+]=[N-])OCCCCCCCCCCCCCCCCCC)C(O)C2O)c(=O)n1 (centres undefined) ?
> 100 µM

Query: TGI; subject: `COC(=O)c1c(O)ccc2c1c1cc3ccccc3c(O)c1n2Cc1ccccc1Cl`
61.8 µM

I am curious: what TGI value has been reported for `Cc1ccc(N/N=C/C2=CC(C)(C)C(C#N)(C#N)C(O)=C2C#N)cc1` ?
> 100 µM

# get_value(readout='TGI', item= `S=C(Nc1ccc(Cl)cc1)c1ccc(CN2CCCCC2)s1` )
16.8 µM

For the molecule shown here, `CC(=O)OC(=C(C#N)C#N)c1nccnc1C(=O)O` , give the reported TGI.
> 100 µM

I am curious: what TGI value has been reported for CCCCCCCCCCCCCCCCC(=O)NCC(=O)NCC(=O)NC(Cc1ccccc1)C(=O)Oc1ccc([N+](=O)[O-])cc1 (centres undefined) ?
> 100 µM

Consider the molecule `O=C(N/C(=C\NC1=NCCS1)C(=O)N1CSC[C@@H]1C(=O)O)c1ccccc1` and give its measured TGI.
> 100 µM

May I ask what TGI has been recorded for OC1C2CCC3C2CC(C(O)(c2ccccc2)c2ccccc2)C13 (centres undefined) ?
> 100 µM

I'd like to know its TGI. The molecule in question is Nc1nc(Cl)cc(NCC2(CO)CC(CCCc3ccccc3)C2)n1 (centres undefined)
> 100 µM

Find the recorded TGI belonging to CCC(C#N)NCc1ccc(CNC(C#N)CC)cc1 (centres undefined) and report it.
> 100 µM

Reported TGI for C=CC(C)CCC(C/C=C(\C)CCCC(C)C)C(=C)CCCC(C)C (centres undefined) : what is it?
> 100 µM

Form field: reported TGI of `CC1(C)[C@H]2CC[C@](C)(C2)[C@]1(S)Cc1ccccn1`
> 100 µM

Reported TGI, molecule `O=[N+]([O-])c1ccc(CSc2c3ccccc3nc3ccccc23)cc1` : ____
23.1 µM

If you can, please state the reported TGI value of `CSc1ccc(/C=C/C(=O)c2nc3ccccc3[nH]2)cc1` .
> 100 µM

Form field: reported TGI of `Cn1cc(S(=O)(=O)NC(=O)Nc2ccc(Cl)cc2)c(=O)c2ccc(Cl)cc21`
> 100 µM

Quick check: TGI of `N=C1/C(=C/c2ccco2)C(=O)N=C2SC=NN12` ?
> 100 µM

Looking for the measured TGI of `O=c1[nH]c(=S)n(-c2cccc3ccccc23)c(O)c1/C=C1\C=Nc2ccccc21` , can you help?
4.63 µM

Name the reported TGI value associated with the molecule `CC1=CC[C@@H]2[C@@H](CC[C@@]2(C)O)C(C)(C)[C@H]1CC[C@@H]1[C@@]2(C)CC[C@@H](O)C(C)(C)O[C@@H]2CC[C@]1(C)O`
53.2 µM

// query TGI value for entry CCOC(=O)C1C(c2ccco2)C2(C#N)C(=N)OC1(C)C2(C#N)C#N (centres undefined)
> 100 µM

For the molecule shown here, CCCCC1CCCCCCc2[nH]c(/C=C3\N=C(c4ccc[nH]4)C=C3OC)cc21 (centres undefined) , give the reported TGI.
1.35 µM

Name the reported TGI value associated with the molecule Clc1ccc(C2ON=C(c3ccccc3)N2C23CC4CC(CC(C4)C2)C3)cc1Cl (centres undefined)
> 10 µM

GET /values?readout=TGI&item= CC[C@]1(Cc2ccc(OC)c(OC)c2)C=[N+]([O-])O[C@H](OC2CCCCC2c2ccccc2)[C@@H]1OC(C)=O (some centres undefined)
> 100 µM
